Assay: Clearance in Sprague-Dawley rat at 2 mg/kg, iv and 15 mg/kg, po
Format: ADME, organism-based
Conditions: in vivo
measurement.label: clearance
Please answer using the number first and the unit second.

## Input State its clearance: O=C(O)C1CN(Cc2ccc(-c3nc4cc(Cc5ccccc5F)ccc4s3)c(F)c2)C1
## Output 5.5 mL/min/kg

----------
Assay: Half life in Sprague-Dawley rat at 2 mg/kg, iv and 15 mg/kg, po
Assay type: ADME, organism-based
Conditions: in vivo
measurement.label: half-life (h)
Output spec: scalar in h, unitless text.

## Input Give the measured half-life for O=C(O)C1CN(Cc2ccc(-c3nc4cc(Cc5ccccc5F)ccc4s3)c(F)c2)C1
## Output 7.5

----------
Assay: Mean residence time in cynomolgus monkey at 4 mg/kg, iv and 10 mg/kg, po
Format: ADME, organism-based, Macaca fascicularis
Conditions: in vivo
measurement.label: MRT (h)
Dear colleague, please return just the value in h, with no unit written.

## Input Return value of MRT for input O=C(O)C1CN(Cc2ccc(-c3nc4cc(Cc5ccccc5F)ccc4s3)c(F)c2)C1 , no commentary.
## Output 3.3

----------
Consider the following compounds; for each one, report its pEC50.
Molecular target: UniProt P21453
Assay: Agonist activity at human S1P1 receptor expressed in human U2OS cells co-expressing eGFP assessed as receptor internalization after 1 hr
Note on pEC50: it is the negative log10 of concentration, concentration in mol/L.

## Input Please look at this compound and report its pEC50: O=C(O)C1CN(Cc2ccc(-c3cn4ccc(Cc5ccccc5)cc4n3)c(F)c2)C1
## Output 6.13

## Input Specify reported pEC50 for the compound shown: O=C(O)C1CN(Cc2ccc(-c3nc4cc(Cc5cccc(Cl)c5)ccc4s3)c(F)c2)C1
## Output 7.31

## Input Find the measured pEC50 of O=C(O)C1CN(Cc2ccc(-c3nc4ccc(Cc5ccccc5)cc4o3)c(F)c2)C1 and report it.
## Output 7.03

## Input Tell me measured pEC50 for O=C(O)C1CN(Cc2ccc(-c3nc4cc(Cc5ccccc5)ccc4o3)c(F)c2)C1 please.
## Output 6.49

## Input Please look at this compound and report its pEC50: O=C(O)C1CN(Cc2ccc(-c3cc4ccc(Cc5ccccc5)cc4o3)c(F)c2)C1
## Output 7.89

## Input Give the measured pEC50 for O=C(O)C1CN(Cc2ccc(-c3nc4cc(Cc5c(F)cccc5F)ccc4s3)c(F)c2)C1
## Output 6.90

## Input Give the reported value of pEC50 for this record: Cc1ccccc1Cc1ccc2sc(-c3ccc(CN4CC(C(=O)O)C4)cc3F)nc2c1
## Output 7.59

## Input Hello, please tell me recorded pEC50 for this one: O=C(O)C1CN(Cc2ccc(-n3cc4cc(Cc5ccccc5)ccc4n3)c(F)c2)C1
## Output 5.54

## Input Check the records and state pEC50 for O=C(O)C1CN(Cc2ccc(-c3nc4cc(Cc5ccc(F)cc5F)ccc4s3)c(F)c2)C1
## Output 7.38

## Input Given the compound O=C(O)C1CN(Cc2ccc(-c3nc4cc(Cc5ccc(Cl)cc5)ccc4s3)c(F)c2)C1 , write its reported pEC50.
## Output 6.80

----------
Target: Sphingosine 1-phosphate receptor 1 (Homo sapiens)
Sequence (P21453 whole entry): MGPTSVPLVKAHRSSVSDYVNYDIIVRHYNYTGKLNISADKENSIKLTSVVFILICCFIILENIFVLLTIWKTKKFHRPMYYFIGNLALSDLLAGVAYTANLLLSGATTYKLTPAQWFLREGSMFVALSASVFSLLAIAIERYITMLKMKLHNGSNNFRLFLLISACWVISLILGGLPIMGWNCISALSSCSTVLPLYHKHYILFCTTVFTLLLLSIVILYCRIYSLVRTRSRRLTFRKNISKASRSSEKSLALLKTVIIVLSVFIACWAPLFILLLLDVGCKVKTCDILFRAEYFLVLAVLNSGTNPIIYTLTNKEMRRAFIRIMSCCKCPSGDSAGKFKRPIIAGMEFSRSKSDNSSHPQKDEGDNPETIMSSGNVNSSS
Experiment: Agonist activity at human S1P1 receptor expressed in human U2OS cells co-expressing eGFP assessed as receptor internalization after 1 hr relative to 1-(4-(6-benzylbenzofuran-2-yl)-3-fluorobenzyl)azetidine-3-carboxylic acid
Assay type: functional, cell-based
measurement.label: Efficacy
Give the figure together with its unit, number first.

## Input Please look at this molecule and report its Efficacy: O=C(O)C1CN(Cc2ccc(-c3nc4cc(Cc5cccc(F)c5)ccc4s3)c(F)c2)C1
## Output 138%

## Input Fill in reported Efficacy for this entry: O=C(O)C1CN(Cc2ccc(-c3nc4cc(Cc5cccc(Cl)c5)ccc4s3)c(F)c2)C1
## Output 141%

## Input Supply measured Efficacy of O=C(O)C1CN(Cc2ccc(-c3nc4cc(Cc5ccccc5F)ccc4s3)c(F)c2)C1 in your reply.
## Output 115%

## Input Could you please provide reported Efficacy for O=C(O)C1CN(Cc2ccc(-c3nc4cc(Cc5ccc(F)cc5)ccc4s3)c(F)c2)C1 ? Thanks!
## Output 129%

## Input Report measured Efficacy; entry is O=C(O)C1CN(Cc2ccc(-c3nc4ccc(Cc5ccccc5)cc4o3)c(F)c2)C1
## Output 108%

## Input Quick one: give measured Efficacy for O=C(O)C1CN(Cc2ccc(-c3nc4cc(Cc5ccc(Cl)cc5)ccc4s3)c(F)c2)C1
## Output 117%

## Input Fill in reported Efficacy for this entry: O=C(O)C1CN(Cc2ccc(-n3cc4ccc(Cc5ccccc5)cc4n3)c(F)c2)C1
## Output 100%

## Input // fetch Efficacy given entry O=C(O)C1CN(Cc2ccc(-c3nc4cc(Cc5ccccc5Cl)ccc4s3)c(F)c2)C1
## Output 121%

## Input Hello, please tell me recorded Efficacy for this one: Cc1cccc(Cc2ccc3sc(-c4ccc(CN5CC(C(=O)O)C5)cc4F)nc3c2)c1
## Output 92%

## Input # return recorded Efficacy for input O=C(O)C1CN(Cc2ccc(-c3cc4cc(Cc5ccccc5)ccc4o3)c(F)c2)C1
## Output 96%

## Input Output measured Efficacy for this item: O=C(O)C1CN(Cc2ccc(-c3nc4cc(Cc5ccc(F)cc5F)ccc4s3)c(F)c2)C1
## Output 186%

## Input Entry O=C(O)C1CN(Cc2ccc(-n3cc4cc(Cc5ccccc5)ccc4n3)c(F)c2)C1 needs its Efficacy filled in; supply it.
## Output 53%

## Input Read the entry O=C(O)C1CN(Cc2ccc(-c3nc4ccc(Cc5ccccc5)cc4s3)c(F)c2)C1 and write its reported Efficacy.
## Output 84%

----------
Target: Sphingosine 1-phosphate receptor 3 (Homo sapiens, UniProt Q99500)
Sequence (Q99500 whole entry): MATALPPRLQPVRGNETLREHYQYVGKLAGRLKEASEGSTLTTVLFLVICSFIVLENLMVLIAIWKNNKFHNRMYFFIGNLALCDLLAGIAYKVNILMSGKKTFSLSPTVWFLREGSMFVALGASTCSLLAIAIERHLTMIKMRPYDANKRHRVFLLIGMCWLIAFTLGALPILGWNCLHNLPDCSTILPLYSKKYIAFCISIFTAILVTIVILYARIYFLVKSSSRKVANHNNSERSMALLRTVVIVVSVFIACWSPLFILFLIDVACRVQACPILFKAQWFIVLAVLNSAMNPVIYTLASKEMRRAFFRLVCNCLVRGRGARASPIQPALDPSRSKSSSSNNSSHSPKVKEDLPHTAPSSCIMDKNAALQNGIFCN
Assay: Agonist activity at human S1P3 receptor expressed in CHO-K1 cells co-expressing Gq/i5 G-protein assessed as calcium mobilization by FLIPR assay
measurement.label: pEC50
Value format note: pEC50 is -log10 of concentration (mol/L); just state the number.

## Input Return value of pEC50 for input Cc1ccc(Cc2ccc3sc(-c4ccc(CN5CC(C(=O)O)C5)cc4F)nc3c2)cc1 , no commentary.
## Output 5.74

## Input Return the recorded pEC50 value; entry: O=C(O)C1CN(Cc2ccc(-c3nc4cc(Cc5ccc(F)cc5F)ccc4s3)c(F)c2)C1
## Output 5.92

## Input Name the recorded pEC50 of the item O=C(O)C1CN(Cc2ccc(-c3cc4ccc(Cc5ccccc5)cc4o3)c(F)c2)C1 in your answer.
## Output 6.17

## Input Supply pEC50 value. Item: O=C(O)C1CN(Cc2ccc(-c3nc4ccc(Cc5ccccc5)cc4o3)c(F)c2)C1
## Output 6.27

## Input Give recorded pEC50. O=C(O)C1CN(Cc2ccc(-c3nc4cc(Cc5cccc(Cl)c5)ccc4s3)c(F)c2)C1
## Output 5.41

## Input Indicate its recorded pEC50; the molecule in question is Cc1ccccc1Cc1ccc2sc(-c3ccc(CN4CC(C(=O)O)C4)cc3F)nc2c1
## Output 5.61

## Input Give a short answer stating reported pEC50 for O=C(O)C1CN(Cc2ccc(-c3nc4cc(Cc5ccc(F)cc5)ccc4s3)c(F)c2)C1 .
## Output 5.72
